System: Neuregulin-1 EGF-like domain
Assay: binders of neuregulin-1 EGF-like domain, primary screen, biochemical, small-molecule microarray, 635 nm fluorescence (AID 1081);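 note: binding of the protein to compounds printed on small-molecule microarray slides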
Settings: small-molecule microarray binding, higher = more signal
assay-metric: composite z-score
Lab note: record the figure alone, no unit after it.

compound=COCCCNC(=O)[C@@]1(C)c2ccccc2C(=O)N(C(C)C)[C@H]1c1ccc(CO)cc1 val=1.48
compound=COC(=O)[C@@]1(Cc2ccc(F)cc2)[C@H]2c3cc(C(=O)N4CCCC4)n(Cc4ccc(S(C)(=O)=O)cc4)c3C[C@H]2CN1C(=O)c1ccccc1 val=0.859
compound=CN(C)C(=O)[C@]1(Cc2ccccc2N=[N+]=[N-])N=C(c2ccc(OCCCO)cc2)O[C@@H]1c1ccccc1N=[N+]=[N-] val=1.26
compound=COc1ccc([Si](C)(C)[C@H]2[C@H](CCO)O[C@@]3(C(=O)N(Cc4ccc(N(C=O)c5ccccc5)cc4)c4ccccc43)[C@@H]2C)cc1 val=0.606
compound=COc1cccc(-c2cccc(=O)o2)c1 val=0.322
compound=CN(C)CCCCCCNC(=O)[C@H]1C[C@H]2C(=O)N3CCC[C@H]3C(=O)N2[C@H]1c1ccc(O)cc1 val=1.49
compound=CC(C)NC(=O)[C@@]1(C)c2ccccc2C(=O)N(Cc2cc(C(F)(F)F)cc(C(F)(F)F)c2)[C@H]1c1ccc(CO)cc1 val=1.27
compound=COCCOC(=O)N1C(=O)[C@@]2(c3cc(C#CC4(O)CCCCCC4)ccc31)[C@H](c1ccccc1OCCO)N1[C@H](c3ccccc3)[C@H](c3ccccc3)OC(=O)[C@H]1[C@@H]2C(=O)N1CCN(c2ncccn2)CC1 val=1.26

Request - read-out composite z-score | tested on Neuregulin-1 EGF-like domain | compound C=C[C@H](OC)[C@@H](OC(=O)Nc1ccc(OC)cc1)c1ccc(O)c(F)c1
0.804

Request - read-out composite z-score | tested on Neuregulin-1 EGF-like domain | compound CC1CC/C=C\[C@H]2OC34C=CCN(Cc5ccccc5)C(=O)[C@H]3N(CCCO)C(=O)[C@@H]4C2C(=O)O1 (stereo partly specified)
1.48

Request - read-out composite z-score | tested on Neuregulin-1 EGF-like domain | compound [N-]=[N+]=Nc1ccccc1[C@H]1OC(c2ccc(OCCCO)cc2)=N[C@@]1(CCS(=O)(=O)c1ccccc1)C(=O)NCC(O)CO (stereo partly specified)
1.3

Request - read-out composite z-score | tested on Neuregulin-1 EGF-like domain | compound C=CCOC(=O)[C@H]1[C@@H]2C(=O)O[C@@H](c3ccccc3)[C@@H](c3ccccc3)N2[C@@H](c2ccc(OCCOC(=O)[C@H]3C[C@H]4C(=O)N[C@@H](CCCCNC(C)=O)C(=O)N4[C@H]3c3ccc(O)cc3)cc2)[C@]12C(=O)Nc1ccc(I)cc12
1.14

Request - read-out composite z-score | tested on Neuregulin-1 EGF-like domain | compound C=C(COC)/C(=C/C[C@@H](OC(=O)c1ccncc1)c1ccc(CO)o1)c1cc(C(=O)OC)ccc1OC
1.26

Request - read-out composite z-score | tested on Neuregulin-1 EGF-like domain | compound C=CCOC(=O)[C@H]1[C@@H]2C(=O)O[C@@H](c3ccccc3)[C@@H](c3ccccc3)N2[C@@H](c2ccc(OCCOC(=O)[C@H]3C[C@H]4C(=O)N[C@@H](CCCCN(C)C)C(=O)N4[C@H]3c3ccc(O)cc3)cc2)[C@]12C(=O)Nc1ccc(I)cc12
1.3

Request - read-out composite z-score | tested on Neuregulin-1 EGF-like domain | compound COCCOC(=O)N1C(=O)[C@@]2(c3cc(C#CCNC(N)=O)ccc31)[C@H](C(=O)Nc1nc3ccccc3s1)[C@H]1C(=O)O[C@H](c3ccccc3)[C@H](c3ccccc3)N1[C@@H]2c1ccc(OCCO)cc1
0.331

Request - read-out composite z-score | tested on Neuregulin-1 EGF-like domain | compound CN1C(=O)C2C=CC(C(O)C3CC=CCC3)N(N(c3ccccc3)c3ccccc3)C2C1=O (stereo unspecified)
0.33

Origin of values: PubChem BioAssay
